Values compiled from ChEMBL document CHEMBL1961873.

Biological target: Mitogen-activated protein kinase 11 (Homo sapiens);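 note: values are mean percent inhibition of p38beta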
Details: at 1 µM

{"structure_string": "O=S(=O)(CCOCc1ccc(-c2ccc3ncnc(Nc4ccc(OCc5cccc(F)c5)c(Cl)c4)c3c2)o1)c1ccccc1", "inhibition (%)": -0.75}
{"structure_string": "COc1cccc(-n2nc(C)c3c(N/N=C(\\C)c4ccncc4)ncnc32)c1", "inhibition (%)": 0.17}
{"structure_string": "Cc1ccc(Nc2ccnc(Nc3cccc(C(N)=O)c3)n2)cc1O", "inhibition (%)": 17.7}
{"structure_string": "CN(c1ccc(NC(=O)Nc2ccc(OC(F)(F)F)cc2)cc1)c1ccnc(Nc2cccc(S(N)(=O)=O)c2)n1", "inhibition (%)": 16.7}
{"structure_string": "NS(=O)(=O)c1ccc(NC=C2C(=O)Nc3ccc4ncsc4c32)cc1", "inhibition (%)": 27.3}
{"structure_string": "Nc1nccc(-c2c(-c3ccc(F)cc3)ncn2CCCN2CCOCC2)n1", "inhibition (%)": 20.2}
{"structure_string": "COC(=O)c1ccc2c(c1)C(=Cc1cc(Br)c(O)c(Br)c1)C(=O)N2", "inhibition (%)": 4.68}
{"structure_string": "COc1cccc(-n2ncc3c(N/N=C/c4ccc(C)cc4)ncnc32)c1", "inhibition (%)": 4.42}
{"structure_string": "Cc1ccc(C(=O)NC2CC2)cc1-c1ccc2[nH]ncc2c1", "inhibition (%)": 28.2}

* * *

Target: Testis-specific serine/threonine-protein kinase 1 (Homo sapiens);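 note: reported value is the mean inhibition, from the GSK PKIS kinase screening panel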
Details: at 1 µM
inhibition for assorted molecules
measured_property: inhibition (%)

{"structure_string": "CN(C)C(=O)O[C@@H]1CN[C@@H](C#Cc2cc3ncnc(Nc4ccc(OCc5cccc(F)c5)c(Cl)c4)c3s2)C1", "tested_on": "Testis-specific serine/threonine-protein kinase 1 (Homo sapiens)", "data_value": -0.36}
{"structure_string": "Cc1ccc(O)cc1Nc1ccnc2ccc(S(C)(=O)=O)cc12", "tested_on": "Testis-specific serine/threonine-protein kinase 1 (Homo sapiens)", "data_value": 4.63}
{"structure_string": "Nc1nccc(-c2c(-c3ccc(F)cc3)nn3cc(C(F)(F)F)ccc23)n1", "tested_on": "Testis-specific serine/threonine-protein kinase 1 (Homo sapiens)", "data_value": 1.13}
{"structure_string": "CS(=O)(=O)Nc1cccc(-c2ccc3c(NC(=O)C4CC4)n[nH]c3c2)c1", "tested_on": "Testis-specific serine/threonine-protein kinase 1 (Homo sapiens)", "data_value": 0.45}
{"structure_string": "CN(c1ccc(NC(=O)Nc2ccc(OC(F)(F)F)cc2)cc1)c1ccnc(Nc2cccc(S(N)(=O)=O)c2)n1", "tested_on": "Testis-specific serine/threonine-protein kinase 1 (Homo sapiens)", "data_value": 2.44}
{"structure_string": "NS(=O)(=O)c1ccc(NC=C2C(=O)Nc3ccc4ncsc4c32)cc1", "tested_on": "Testis-specific serine/threonine-protein kinase 1 (Homo sapiens)", "data_value": 33.5}
{"structure_string": "ON=C1CCc2cc(-c3nc(C4CCNCC4)[nH]c3-c3ccncc3)ccc21", "tested_on": "Testis-specific serine/threonine-protein kinase 1 (Homo sapiens)", "data_value": 0.73}
{"structure_string": "c1ccc(Cc2nc3ccc(Nc4ncnc5ccccc45)cc3[nH]2)cc1", "tested_on": "Testis-specific serine/threonine-protein kinase 1 (Homo sapiens)", "data_value": 2.75}
{"structure_string": "COc1cccc(-n2ncc3c(N/N=C/c4ccc(C)cc4)ncnc32)c1", "tested_on": "Testis-specific serine/threonine-protein kinase 1 (Homo sapiens)", "data_value": 15.2}
{"structure_string": "Cc1ccc2c(-c3ccnc(Nc4cccc(C(F)(F)F)c4)n3)c(-c3ccccc3)nn2n1", "tested_on": "Testis-specific serine/threonine-protein kinase 1 (Homo sapiens)", "data_value": 4.11}
{"structure_string": "COC(=O)Nc1nc2cc(Oc3ccc(NC(=O)Nc4cccc(Br)c4)cc3)ccc2[nH]1", "tested_on": "Testis-specific serine/threonine-protein kinase 1 (Homo sapiens)", "data_value": 2.52}
{"structure_string": "COc1cccc(-n2nc(C)c3c(N/N=C(\\C)c4ccncc4)ncnc32)c1", "tested_on": "Testis-specific serine/threonine-protein kinase 1 (Homo sapiens)", "data_value": 1.88}
{"structure_string": "NS(=O)(=O)c1ccc(Nc2cc(-c3cccc(O)c3)n[nH]2)cc1", "tested_on": "Testis-specific serine/threonine-protein kinase 1 (Homo sapiens)", "data_value": 3.25}
{"structure_string": "Cc1ccc2c(-c3ccnc(Nc4ccc5c(c4)OCCO5)n3)c(-c3ccc(C(F)(F)F)cc3)nn2n1", "tested_on": "Testis-specific serine/threonine-protein kinase 1 (Homo sapiens)", "data_value": 2.26}

* * *

Target: Tyrosine-protein kinase Fgr (Homo sapiens) (UniProt P09769);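 note: reported values are mean percent inhibition of FGR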
Sequence (P09769 2-529 limits assumed): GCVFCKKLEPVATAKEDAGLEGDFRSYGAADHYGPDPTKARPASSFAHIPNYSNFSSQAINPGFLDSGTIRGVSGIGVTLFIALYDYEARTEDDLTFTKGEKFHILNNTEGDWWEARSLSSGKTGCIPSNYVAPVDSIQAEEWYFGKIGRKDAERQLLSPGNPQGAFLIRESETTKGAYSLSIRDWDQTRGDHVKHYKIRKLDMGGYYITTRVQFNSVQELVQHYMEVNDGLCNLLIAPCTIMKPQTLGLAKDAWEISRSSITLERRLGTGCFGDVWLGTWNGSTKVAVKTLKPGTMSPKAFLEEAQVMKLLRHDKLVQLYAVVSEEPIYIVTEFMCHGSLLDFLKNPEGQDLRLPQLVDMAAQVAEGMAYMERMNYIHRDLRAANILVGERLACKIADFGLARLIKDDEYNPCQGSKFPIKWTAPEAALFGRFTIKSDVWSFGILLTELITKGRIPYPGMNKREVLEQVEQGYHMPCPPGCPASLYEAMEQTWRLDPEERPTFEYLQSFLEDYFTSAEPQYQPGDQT
Settings: at 0.1 µM
measured_property: inhibition (%)

{"structure_string": "O=C(Nc1ccc(Oc2ccc3[nH]c(NC(=O)c4ccco4)nc3c2)cc1)Nc1cc(C(F)(F)F)ccc1F", "scale_unit": "%", "data_value": 1.62}
{"structure_string": "[O-][S+]1CCN(Cc2ccc(-c3ccc4ncnc(Nc5ccc(OCc6ccccc6)c(Cl)c5)c4c3)o2)CC1", "scale_unit": "%", "data_value": -0.44}
{"structure_string": "CCn1c(-c2nonc2N)nc2ccc(F)cc21", "scale_unit": "%", "data_value": 4.5}
{"structure_string": "CCOc1nccc2c1nc(-c1nonc1N)n2CC", "scale_unit": "%", "data_value": 6.66}
{"structure_string": "O=C1Nc2ccccc2/C1=C/Nc1ccc2[nH]c(=O)[nH]c2c1", "scale_unit": "%", "data_value": 11.3}
{"structure_string": "Cc1ccc(Nc2ccnc(Nc3cccc(C(N)=O)c3)n2)cc1O", "scale_unit": "%", "data_value": 52.6}
{"structure_string": "CN(C)C(=O)O[C@@H]1CN[C@@H](C#Cc2cc3ncnc(Nc4ccc(OCc5cccc(F)c5)c(Cl)c4)c3s2)C1", "scale_unit": "%", "data_value": 4.03}
{"structure_string": "COc1cc(/C=N/Nc2ncnc3c2cnn3C(C)C)ccc1O", "scale_unit": "%", "data_value": 9.02}
{"structure_string": "NC(=O)c1sc(-n2cnc3ccccc32)cc1OCc1ccccc1Br", "scale_unit": "%", "data_value": 1.44}
{"structure_string": "COC(=O)Nc1nc2cc(Oc3ccc(NC(=O)Nc4cccc(Br)c4)cc3)ccc2[nH]1", "scale_unit": "%", "data_value": 4.68}
{"structure_string": "Cc1cc(-c2ccccn2)cc(C)c1/C=C/c1cncc(-c2nn[nH]n2)c1", "scale_unit": "%", "data_value": 2.37}
{"structure_string": "N#Cc1cccc(Nc2nccc(-c3cnn4ncccc34)n2)c1", "scale_unit": "%", "data_value": 11.1}
{"structure_string": "CS(=O)(=O)Nc1cccc(-c2ccc3c(NC(=O)C4CC4)n[nH]c3c2)c1", "scale_unit": "%", "data_value": -0.31}
{"structure_string": "FC(F)(F)c1ccc(-c2nn3ncccc3c2-c2ccnc(Nc3ccc4c(c3)OCCO4)n2)cc1", "scale_unit": "%", "data_value": 25.6}
{"structure_string": "CCS(=O)(=O)c1ccc(OC)c(Nc2nccc(N(C)c3ccc4c(C)n[nH]c4c3)n2)c1", "scale_unit": "%", "data_value": 23.1}
{"structure_string": "OCc1ccc(-c2nc(-c3ccccn3)c(-c3ccc4c(c3)OCO4)[nH]2)cc1", "scale_unit": "%", "data_value": 3.43}
{"structure_string": "CN1CCN(C(=O)c2ccc(NC(=O)Nc3ccc(N(C)c4ccnc(Nc5ccc(CS(C)(=O)=O)cc5)n4)cc3)cc2)CC1", "scale_unit": "%", "data_value": 5.31}
{"structure_string": "C[C@@H](Oc1cc(-n2cnc3ccc(OC[C@@H](O)CO)cc32)sc1C(N)=O)c1ccccc1Cl", "scale_unit": "%", "data_value": 0.03}
{"structure_string": "NC(=O)c1cccc(Nc2nccc(Nc3cccc(F)c3)n2)c1", "scale_unit": "%", "data_value": 5.52}
{"structure_string": "O=C1Nc2ccc(-c3cccnc3)cc2C1=Cc1cc(Br)c(O)c(Br)c1", "scale_unit": "%", "data_value": 1.1}
{"structure_string": "Cc1ccc2c(c1)/C(=N/Nc1ccc(S(N)(=O)=O)cc1)C(=O)N2", "scale_unit": "%", "data_value": -0.72}
{"structure_string": "Cc1cc(Cl)cc2c1NC(=O)C2=NNc1ccc(S(N)(=O)=O)cc1", "scale_unit": "%", "data_value": 4.99}
{"structure_string": "COC(=O)c1ccc2c(c1)C(=Cc1cc(Br)c(O)c(Br)c1)C(=O)N2", "scale_unit": "%", "data_value": 0.15}

* * *

Target: cAMP-dependent protein kinase catalytic subunit PRKX (Homo sapiens) (UniProt P51817);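 note: values are mean percent inhibition of PRKX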
Sequence (P51817 whole entry): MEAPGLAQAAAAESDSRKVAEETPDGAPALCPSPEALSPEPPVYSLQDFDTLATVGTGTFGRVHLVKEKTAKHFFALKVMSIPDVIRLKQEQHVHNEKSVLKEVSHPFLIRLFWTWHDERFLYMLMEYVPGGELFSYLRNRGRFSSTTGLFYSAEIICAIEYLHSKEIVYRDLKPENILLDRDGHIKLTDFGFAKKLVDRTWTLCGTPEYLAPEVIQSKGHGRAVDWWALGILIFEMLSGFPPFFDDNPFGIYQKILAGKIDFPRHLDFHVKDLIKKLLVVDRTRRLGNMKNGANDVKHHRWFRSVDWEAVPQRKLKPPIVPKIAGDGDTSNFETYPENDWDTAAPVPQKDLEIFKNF
Conditions: at 0.1 µM

{"structure_string": "COc1cccc(-n2ncc3c(N/N=C/c4ccc(C)cc4)ncnc32)c1", "scale_unit": "%", "inhibition": 2.31}
{"structure_string": "O=C1Nc2ccccc2/C1=C/Nc1ccc2[nH]c(=O)[nH]c2c1", "scale_unit": "%", "inhibition": 2.23}
{"structure_string": "COc1cc2ncn(-c3cc(OCc4ccccc4S(C)(=O)=O)c(C#N)s3)c2cc1OC", "scale_unit": "%", "inhibition": 1.34}
{"structure_string": "NS(=O)(=O)c1ccc(N/N=C2\\C(=O)Nc3ccc(Cl)cc32)cc1", "scale_unit": "%", "inhibition": 4.2}
{"structure_string": "Oc1cccc(-c2nc(-c3ccccc3)[nH]c2-c2ccncc2)c1", "scale_unit": "%", "inhibition": 2.36}
{"structure_string": "Nc1nccc(-c2c(-c3ccc(F)cc3)ncn2CCCN2CCOCC2)n1", "scale_unit": "%", "inhibition": 2.51}
{"structure_string": "N#Cc1c(NC(=O)c2ccccc2F)sc2c1CCCC2", "scale_unit": "%", "inhibition": -0.74}
{"structure_string": "NS(=O)(=O)c1ccc(Nc2cc(-c3cccc(O)c3)n[nH]2)cc1", "scale_unit": "%", "inhibition": 3.04}
{"structure_string": "FC(F)(F)c1ccc(-c2nn3ncccc3c2-c2ccnc(Nc3ccc4c(c3)OCCO4)n2)cc1", "scale_unit": "%", "inhibition": 5.94}
{"structure_string": "COc1cc2ncnc(Nc3ccc4c(cnn4Cc4ccccc4)c3)c2cc1OC", "scale_unit": "%", "inhibition": 1.5}
{"structure_string": "O=C(Nc1ccc(Oc2ccc3[nH]c(NC(=O)c4ccco4)nc3c2)cc1)Nc1cc(C(F)(F)F)ccc1F", "scale_unit": "%", "inhibition": 4}
{"structure_string": "CN(C)C(=O)O[C@@H]1CN[C@@H](C#Cc2cc3ncnc(Nc4ccc(OCc5cccc(F)c5)c(Cl)c4)c3s2)C1", "scale_unit": "%", "inhibition": -0.77}
{"structure_string": "CS(=O)(=O)CCNCc1nc(-c2ccc3ncnc(Nc4ccc(OCc5cccc(C(F)(F)F)c5)cc4)c3c2)cs1", "scale_unit": "%", "inhibition": 0.7}
{"structure_string": "Cc1cc(Cl)cc2c1NC(=O)C2=NNc1ccc(S(N)(=O)=O)cc1", "scale_unit": "%", "inhibition": 1.43}
{"structure_string": "CC(C)c1ccc2c(c1)NC(=O)/C2=N/Nc1ccc(S(N)(=O)=O)cc1", "scale_unit": "%", "inhibition": 0.2}
{"structure_string": "Cc1nc(-c2ccccc2)n2nc(NCCCN3CCOCC3)ncc12", "scale_unit": "%", "inhibition": 2.28}
{"structure_string": "NS(=O)(=O)c1cccc(-c2cc3ccncc3cc2OCc2ccccc2)c1", "scale_unit": "%", "inhibition": 1.93}
{"structure_string": "Cc1cc(-c2ccccn2)cc(C)c1/C=C/c1cncc(-c2nn[nH]n2)c1", "scale_unit": "%", "inhibition": 2}
{"structure_string": "[O-][S+]1CCN(Cc2ccc(-c3ccc4ncnc(Nc5ccc(OCc6ccccc6)c(Cl)c5)c4c3)o2)CC1", "scale_unit": "%", "inhibition": 1.3}
{"structure_string": "C[C@@H](Oc1cc(-n2cnc3ccc(OCC4CCN(C)CC4)cc32)sc1C(N)=O)c1ccccc1C(F)(F)F", "scale_unit": "%", "inhibition": -0.03}
{"structure_string": "CCn1c(-c2nonc2N)nc2ccc(F)cc21", "scale_unit": "%", "inhibition": 3.36}
{"structure_string": "O=S(=O)(CCOCc1ccc(-c2ccc3ncnc(Nc4ccc(OCc5cccc(F)c5)c(Cl)c4)c3c2)o1)c1ccccc1", "scale_unit": "%", "inhibition": 1.21}
{"structure_string": "NS(=O)(=O)c1ccc(NC=C2C(=O)Nc3ccc4ncsc4c32)cc1", "scale_unit": "%", "inhibition": 2.2}
{"structure_string": "Nc1nccc(-c2c(-c3ccc(F)cc3)nn3cc(C(F)(F)F)ccc23)n1", "scale_unit": "%", "inhibition": 0.72}
{"structure_string": "CS(=O)(=O)Nc1cccc(-c2ccc3c(NC(=O)C4CC4)n[nH]c3c2)c1", "scale_unit": "%", "inhibition": 0.39}
{"structure_string": "CCS(=O)(=O)c1ccc(OC)c(Nc2nccc(N(C)c3ccc4c(C)n[nH]c4c3)n2)c1", "scale_unit": "%", "inhibition": 2.11}
{"structure_string": "CCS(=O)(=O)c1ccc(OC)c(Nc2ncc(-c3cccc(OC)c3)o2)c1", "scale_unit": "%", "inhibition": 0.28}
{"structure_string": "COC(=O)c1cncc(/C=C/c2c(C)cc(O)cc2C)c1", "scale_unit": "%", "inhibition": 1.78}
{"structure_string": "COc1cc(/C=N/Nc2ncnc3c2cnn3C(C)C)ccc1O", "scale_unit": "%", "inhibition": 0.57}
{"structure_string": "ON=C1CCc2cc(-c3nc(C4CCNCC4)[nH]c3-c3ccncc3)ccc21", "scale_unit": "%", "inhibition": -0.73}
{"structure_string": "Cc1ccc(C(=O)NC2CC2)cc1-c1ccc2[nH]ncc2c1", "scale_unit": "%", "inhibition": -1.3}
{"structure_string": "O=C1Nc2ccc(-c3cccnc3)cc2C1=Cc1cc(Br)c(O)c(Br)c1", "scale_unit": "%", "inhibition": 1.55}
{"structure_string": "CCn1c(-c2nonc2N)nc2c(C#CC(C)(C)O)nc(OCCNC)cc21", "scale_unit": "%", "inhibition": 21.5}
